# protocol_text: NCI Yeast Anticancer Drug Screen. Data for the mlh1 rad18 strain (AID 175)
# test_context: S. cerevisiae mlh1 rad18 strain growth inhibition; at 50.0 µM (retest, dose inferred, filed as 5.0); stronger effect = higher value
This is part of a sample that, as a whole, favours compounds with a hit. Of some 79,000 tested, about 15% had one in any assay.
Each entry gets Not fulfilled if its growth inhibition stays under 70%, and Fulfilled if its growth inhibition is 70% or above.

Threshold query (growth inhibition >= 70%) on Fc1ccc(NC(=S)SCc2ccc(Cl)c(Cl)c2)cc1F
Fulfilled

----------
# protocol_text: NCI Yeast Anticancer Drug Screen. Data for the rad18 strain (AID 177)
# test_context: S. cerevisiae rad18 mutant growth inhibition; at 33.0 µM; stronger effect = higher value
Compounds without any hit were thinned out: in the full panel of roughly 79,000, 15% have a hit.
Each entry gets condition not met if its growth inhibition stays under 30%, and condition met if its growth inhibition is 30% or above.

- input_smiles: "O=C1c2ccccc2-c2n[nH]c3cccc1c23"
  answer_label: "condition met"
- input_smiles: "C/C(=N/NC(=S)N1CCCCCC1)c1cccc(/C(C)=N\\NC(=S)N2CCCCCC2)n1"
  answer_label: "condition met"
- input_smiles: "C[C@@H]1C[C@H]2[C@@H]3CCC4=CC(=O)C=C[C@]4(C)[C@@]3(Cl)[C@@H](Cl)C[C@]2(C)[C@@]1(O)C(=O)COP(=O)(O)O"
  answer_label: "condition not met"

Threshold query (growth inhibition >= 30%) on COc1ccc2ccc3ccccc3c2c1C=O
condition not met

Threshold query (growth inhibition >= 30%) on CCCC/C=C/C(CC)(C(=O)OCC)C(=O)OCC
condition not met

Each recorded value in this set is attributed to PubChem BioAssay (NCI).
